Biological target: FGFR2 (Homo sapiens)
Sequence (P21802 399-821 limits assumed): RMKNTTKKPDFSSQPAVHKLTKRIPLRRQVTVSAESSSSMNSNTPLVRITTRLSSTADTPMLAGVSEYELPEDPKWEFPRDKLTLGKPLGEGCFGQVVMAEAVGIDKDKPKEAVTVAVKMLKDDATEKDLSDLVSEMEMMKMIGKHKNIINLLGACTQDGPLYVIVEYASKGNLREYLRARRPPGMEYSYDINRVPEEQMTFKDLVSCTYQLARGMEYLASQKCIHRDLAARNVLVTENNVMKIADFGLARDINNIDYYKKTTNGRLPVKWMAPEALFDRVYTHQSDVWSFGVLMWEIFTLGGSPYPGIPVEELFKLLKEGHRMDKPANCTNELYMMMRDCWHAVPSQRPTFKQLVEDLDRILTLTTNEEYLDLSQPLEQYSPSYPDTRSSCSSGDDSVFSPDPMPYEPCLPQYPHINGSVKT
Test: FGFR wild type enzyme assay (HTRF KinEASE-TK), FGFR2
Settings: Enz FGFR2 (nM), FGFR2 wild type enzyme assay
observed-property: IC50 (nM)

>>> number("CN(C)CCn1cc(-c2cc(Sc3ccccc3C#N)c3c(C#N)cnn3c2)cn1 [Example 598]")
1
>>> number("[2H]C([2H])([2H])n1cc(-c2cc(Sc3ccccc3C#N)c3c(C#N)cnn3c2)cn1 [Example 641]")
1
>>> number("Cc1c(-c2cc(Sc3ccc(F)cc3C#N)c3c(C#N)cnn3c2)cnn1[C@H]1CCC[C@H](O)C1 [Example 496]")
3
>>> number("Cc1c(-c2cc(Sc3ncc(F)cc3F)c3c(C#N)cnn3c2)cnn1[C@H]1CCCNC1 [Example 345]")
4
>>> number("CC(=O)N1[C@@H]2CC[C@H]1C[C@H](n1ncc(-c3cc(Sc4ccc(F)cc4C#N)c4c(C#N)cnn4c3)c1C)C2 [Example 373]")
2

[A] Cc1noc(Cn2cc(-c3cc(Sc4ccccc4C#N)c4c(C#N)cnn4c3)cn2)n1 [Example 374]
[B] C[C@@H](O)CN1CC[C@H](n2cc(-c3cc(Sc4ccccc4C#N)c4c(C#N)cnn4c3)cn2)C1 [Example 678]
[C] Cc1nn([C@H]2CCCN(C(=O)CO)C2)cc1-c1cc(Sc2ncccc2F)c2c(C#N)cnn2c1 [Example 420]
[D] Cn1cc(-c2cc(Sc3ccccc3C#N)c3c(C#N)cnn3c2)ccc1=O [Example 638]
-- ask Please list these compounds in decreasing order of IC50. Use the labels to give the requested order.
-- reply D, C, A, B
(D: 18 nM, C: 4 nM, A: 1 nM, B: 0.4 nM)
